Data origin: patent US20250136556A1

# Test System: Human Aryl Hydrocarbon Receptor (AHR) (Homo sapiens)
# Construct: purchased INDIGO Bioscience IB06001-32; host or cells: AHR Reporter Cell (proprietary kit cells)
# Test Name: AHR agonist reporter assay in human cell line (INDIGO luciferase reporter)
# Assay type: cell-based
# Test Conditions: reporter cells, 24 hours incubation, second line of cell; read-out: AHR abEC50
pEC50: −log10 of the molar value.
Recorded Endpoint: pEC50

Compound: Cc1cnc2ccc(-c3cnc(C(C)C)c(O)c3)cc2c1
pEC50: < 7.00

IN: Look up pEC50 of "CC(C)c1c(O)cc(-c2cccc3ccc(C(=O)O)nc23)cc1O" and report it.
OUT: < 7.00

----------
# Test System: Human Aryl Hydrocarbon Receptor (AHR) (Homo sapiens, UniProt P35869)
# Construct: purchased INDIGO Bioscience IB06001-32; host or cells: AHR Reporter Cell (proprietary kit cells)
# Sequence (P35869 11-848): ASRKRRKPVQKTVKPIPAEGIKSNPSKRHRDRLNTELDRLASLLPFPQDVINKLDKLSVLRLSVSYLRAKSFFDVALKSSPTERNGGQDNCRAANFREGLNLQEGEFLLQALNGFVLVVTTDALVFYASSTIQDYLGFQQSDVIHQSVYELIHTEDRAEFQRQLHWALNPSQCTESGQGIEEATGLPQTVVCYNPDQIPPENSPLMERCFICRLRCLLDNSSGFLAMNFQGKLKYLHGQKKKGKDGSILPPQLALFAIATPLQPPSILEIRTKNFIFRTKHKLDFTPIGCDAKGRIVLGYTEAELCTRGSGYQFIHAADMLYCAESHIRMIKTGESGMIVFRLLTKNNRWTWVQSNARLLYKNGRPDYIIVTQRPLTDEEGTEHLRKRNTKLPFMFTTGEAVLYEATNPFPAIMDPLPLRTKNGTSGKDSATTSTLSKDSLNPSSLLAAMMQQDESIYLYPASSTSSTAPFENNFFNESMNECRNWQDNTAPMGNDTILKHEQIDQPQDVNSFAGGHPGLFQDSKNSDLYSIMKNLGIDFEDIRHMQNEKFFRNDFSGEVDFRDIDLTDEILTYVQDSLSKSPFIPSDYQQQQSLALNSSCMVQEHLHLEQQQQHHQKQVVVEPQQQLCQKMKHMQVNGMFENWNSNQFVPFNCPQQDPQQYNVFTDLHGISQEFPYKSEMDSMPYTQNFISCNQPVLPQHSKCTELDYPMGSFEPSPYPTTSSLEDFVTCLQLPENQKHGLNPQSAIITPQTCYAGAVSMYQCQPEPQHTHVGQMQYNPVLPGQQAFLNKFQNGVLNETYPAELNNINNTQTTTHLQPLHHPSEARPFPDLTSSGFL
# Test Name: AHR agonist reporter assay in human cell line (INDIGO luciferase reporter)
# Assay type: cell-based
# Test Conditions: reporter cells, 24 hours incubation, second line of cell; read-out: AHR abEC50
compounds and their reported EC50

Please review the entries below; each comes with its answer.
Compound: CC(C)c1c(O)cc(S(=O)(=O)c2ccccc2)cc1O [Compound 131]
EC50: > 0.4 µM
--
Compound: CC(C)c1ncc(-c2ccc3cc(F)ccc3n2)cc1O [Compound 60]
EC50: > 0.1 µM
--
Compound: CC(C)c1ncc(-c2cncc3ccc(F)cc23)cc1O [Compound 83]
EC50: > 0.1 µM
--
Compound: CC(C)c1onc(/C=C/c2ccccc2)c1O [Compound 109]
EC50: > 0.1 µM

IN: Please look at this compound and report its EC50: CC(C)c1c(O)cc(-c2ccc3ncccc3c2F)cc1O [Compound 10]
OUT: 0.0334 µM

IN: Hello, please tell me recorded EC50 for this one: CC(C)c1c(O)cc(-c2c(Cl)cc3c(O)ncnc3c2F)cc1O [Compound 38]
OUT: > 0.1 µM

IN: Assign EC50 to the following record: CC(C)c1c(O)cc(-c2ccc3ccccc3n2)cc1O [Compound 47]
OUT: 0.00421 µM

IN: // fetch EC50 given entry CC(C)c1c(O)cc(-c2ccc3nccnc3c2)cc1O [Compound 40]
OUT: > 0.1 µM

IN: Note down EC50 recorded for CC(C)c1c(O)cc(-c2cc(N)c3ccccc3n2)cc1O [Compound 24]
OUT: > 0.1 µM

IN: Write down EC50 measured for item COc1cc(/C=C/c2ccccc2)cc(O)c1C(C)C [Compound 137]
OUT: < 0.008 µM

IN: Note EC50 for the compound shown: CC(C)c1ncc(-c2ccc3ncccc3c2F)cc1O [Compound 61]
OUT: > 0.1 µM

IN: Return reported EC50. Input compound: CC(C)c1c(O)cc(-c2cc3ccccc3nc2C#N)cc1O [Compound 28]
OUT: > 0.1 µM

IN: Name the recorded EC50 of the item Cc1ccnc2c(-c3cnc(C(C)C)c(O)c3)ccnc12 [Compound 94] in your answer.
OUT: > 0.1 µM

IN: Respond only with EC50 recorded for CC(C)c1ncc(-c2cccc3ccc(C(=O)O)nc23)cc1O [Compound 76]
OUT: > 0.1 µM

IN: Name the recorded EC50 of the item CC(C)c1ncc(/C=C/c2ccc(F)cc2)cc1O [Compound 114] in your answer.
OUT: 0.12 µM

----------
# Test system: AHR-regulated gene CYP1A1
# Test Name: AHR-regulated CYP1A1 expression in human monocytic U937 cell line (qPCR)
# Test Conditions: U937 cells, 16 hours, CYP1A1 relative to GAPDH
Recorded Endpoint: CYP1A1 (% activation to Tapinarof at 1 μM) (%)

(I) CC(C)c1c(O)cc(-c2cc3ccccc3cn2)cc1O
(II) CC(C)c1ncc(-c2ccc3ccccc3n2)cc1N
IN: Of I and II , whose reported CYP1A1 (% activation to Tapinarof at 1 μM) is numerically smaller? Answer format: the label of the selected item.
OUT: II

(I) CC(C)c1c(O)cc(-c2cnc3ccccc3c2)cc1O
(II) CC(C)c1ncc(/C=C/c2ccccc2)cc1O [Compound 103, (E)-2-isopropyl-5-styrylpyridine-3-ol]
IN: Quick one: lower CYP1A1 (% activation to Tapinarof at 1 μM), I or II ? Pick one; state its label.
OUT: II

(A) COc1cc(-c2nc3ccccc3o2)cc(O)c1C(C)C
(B) CC(C)c1ncc(-c2ccc3ccccc3n2)cc1O
IN: Please indicate which item has the smaller measured CYP1A1 (% activation to Tapinarof at 1 μM): A versus B Respond with the label that goes with your answer.
OUT: A

----------
# Test System: Human Aryl Hydrocarbon Receptor (AHR) (Homo sapiens, UniProt P35869)
# Construct: purchased INDIGO Bioscience IB06001-32; host or cells: AHR Reporter Cell (proprietary kit cells)
# Sequence (P35869 11-848): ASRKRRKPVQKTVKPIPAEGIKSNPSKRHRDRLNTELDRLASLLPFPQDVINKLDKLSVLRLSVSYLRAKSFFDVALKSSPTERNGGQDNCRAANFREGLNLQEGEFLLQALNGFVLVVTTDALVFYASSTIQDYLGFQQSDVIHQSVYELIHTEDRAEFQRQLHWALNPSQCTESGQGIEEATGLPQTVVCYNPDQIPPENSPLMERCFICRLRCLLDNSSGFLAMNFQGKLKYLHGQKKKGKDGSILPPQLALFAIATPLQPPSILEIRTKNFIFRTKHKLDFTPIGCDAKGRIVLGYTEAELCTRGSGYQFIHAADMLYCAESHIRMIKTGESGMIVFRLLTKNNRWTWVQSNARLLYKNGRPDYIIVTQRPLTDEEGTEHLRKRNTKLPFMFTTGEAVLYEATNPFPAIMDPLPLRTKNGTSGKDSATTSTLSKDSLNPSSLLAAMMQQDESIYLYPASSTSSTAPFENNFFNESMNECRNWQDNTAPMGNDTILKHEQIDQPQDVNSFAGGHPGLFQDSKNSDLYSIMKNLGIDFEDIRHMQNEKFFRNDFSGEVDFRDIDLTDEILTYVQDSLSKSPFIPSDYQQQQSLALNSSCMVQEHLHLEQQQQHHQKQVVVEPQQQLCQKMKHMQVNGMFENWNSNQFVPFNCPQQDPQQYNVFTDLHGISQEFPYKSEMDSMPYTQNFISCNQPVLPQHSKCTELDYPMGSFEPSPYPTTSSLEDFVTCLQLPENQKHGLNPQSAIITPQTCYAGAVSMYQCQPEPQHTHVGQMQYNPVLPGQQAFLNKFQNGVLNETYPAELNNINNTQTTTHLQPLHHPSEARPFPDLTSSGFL
# Test Name: AHR agonist reporter assay in human cell line (INDIGO luciferase reporter);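 note: firefly luciferase luminescence read on a plate reader, values normalized against positive and negative controls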
# Assay type: cell-based
# Test Conditions: reporter cells, 24 hours incubation, second line of cell; read-out: AHR abEC50
pEC50: −log10 of the molar value.
Recorded Endpoint: pEC50

Previously resolved entries follow.
Smiles: CC(C)c1c(O)cc(-c2cccc3cc(F)c(O)nc23)cc1O
Obs Value: 7.10

Smiles: CC(C)c1c(O)cc(-c2cnc3c(F)c(F)ccc3c2)cc1O
Obs Value: 7.41

Smiles: CC(C)c1c(O)cc(-c2cc(F)c3cnc(N)nc3c2)cc1O
Obs Value: 8.45

Smiles: CC(C)c1c(O)cc(-c2cc3ccccc3cn2)cc1O
Obs Value: 7.41

(a) CC(C)c1c(O)cc(/C=C/c2ccccc2)cc1F
(b) CC(C)c1c(O)cc(-c2cnc3c(C(F)(F)F)cccc3c2)cc1O
(c) CC(C)c1c(O)cc(-c2nc3ccccc3[nH]2)cc1O
(d) COc1cc(Oc2ccccc2)cc(O)c1C(C)C
IN: Please produce an ascending ranking of these molecules based on pEC50. Give the order by naming the labels one after another as requested.
OUT: d, b, a, c
